# Tested on: Caco-2
# METHOD SUMMARY: cell viability relative to DMSO; higher = less toxic
# CONDITION SUMMARY: 72 h; 10 nM
Cut-off 90% on cell viability: below means met, at or above means not met.

Reference set, count: 4
- O=C(Nc1ccc(Cl)cc1)Nc1ccc(Cl)c(Cl)c1: met
- CCNC(=O)[C@@H]1CCCN1C(=O)[C@H](CCCNC(=N)N)NC(=O)[C@H](CC(C)C)NC(=O)[C@@H](C)NC(=O)[C@H](Cc1ccc(O)cc1)NC(=O)[C@H](CO)NC(=O)[C@H](Cc1c[nH]c2ccccc12)NC(=O)[C@H](Cc1cnc[nH]1)NC(=O)[C@@H]1CCC(=O)N1: not met
- OCCN1CCN(CC/C=C2/c3ccccc3Sc3ccc(Cl)cc32)CC1: met
- C#C[C@]1(O)CC[C@H]2[C@@H]3CCc4cc(OC)ccc4[C@H]3CC[C@@]21C: not met

Problem: Is the reported cell viability for c1ccc(CCNc2nc(-c3ccccc3)cs2)cc1 strictly below 90%?
Result: met
